Species: Homo sapiens
Assay Method Text: Selectivity index, ratio of Ki for inhibition of recombinant human full length CDK2/Cyclin A to Ki for inhibition of recombinant human full length CDK9/Cyclin T1
Measure Name: Ratio Ki

• CNc1nc(C)c(-c2nc(Nc3cccc(N4CCOCC4)c3)ncc2C)s1 = 44
• CNc1nc(C)c(-c2nc(Nc3cccc(N4CCCCCC4)c3)ncc2C#N)s1 = 7
• CNc1nc(C)c(-c2nc(Nc3cccc(N4CCN(C(C)=O)CC4)c3)ncc2Br)s1 = 16
• CNc1nc(C)c(-c2nc(Nc3cccc(N4CCN(C)CC4)c3)ncc2Cl)s1 = 21
• CNc1nc(C(F)(F)F)c(-c2ccnc(Nc3cccc(N4CCCNCC4)c3)n2)s1 = 2
• CNc1nc(C)c(-c2nc(Nc3cccc(N4CCN(C(C)=O)CC4)c3)ncc2C)s1 = 66

a = CNc1nc(C)c(-c2ccnc(Nc3cccc(N4CCN(C(C)=O)CC4)c3)n2)s1
b = CNc1nc(C)c(-c2nc(Nc3cccc(N4CCNC(=O)CC4)c3)ncc2C)s1
[Q] Consider entries a and b . Which has the numerically lower Ratio Ki? When you have decided, please share the label of that item.
[A] a
(a: 9, b: 28)

A = CNc1nc(C)c(-c2nc(Nc3cc(N4CCOCC4)cc(N4CCOCC4)c3)ncc2C#N)s1
B = CNc1nc(C2CC2)c(-c2ccnc(Nc3cccc(C(=O)NC4CCN(C)CC4)c3)n2)s1
[Q] Returns: the argument ( A or B ) having the larger Ratio Ki. When you have decided, please share the label of that item.
[A] A
